# Measured on: Glycogen synthase kinase-3 beta (Homo sapiens)
# Applied conditions: Compound concentration 20.0 uM
# Description: Thermal Shift Assay. Domain: start/stop: M26-R383
Residues, ends and D or L forms follow the SMILES beside them. *: point of attachment. Cbz = O=C(OCc1ccccc1)*; CH2F = FC*
Metric name: ΔTm (°C)
Answer format: numeric, °C implied, no suffix.

Q: Report measured ΔTm; entry is O=C(C1CC1)N1CCN(Cn2sc3ccccc3c2=O)CC1
A: 0

Q: Report measured ΔTm; entry is COC(=O)CC[C@H](NC(=O)[C@H](Cc1c[nH]c2ccccc12)NC(=O)OCc1ccccc1)C(=O)N[C@@H](Cc1cnc[nH]1)C(=O)N[C@@H](CC(=O)OC)C(=O)CF (Cbz-WE(OMe)HD(OMe)-CH2F)
A: -0.68

Q: Report measured ΔTm; entry is c1ccc(Cn2c(-c3ccc(OC[C@H](C4CCNCC4)n4c(-c5ccccc5)nc5ccccc54)cc3)nc3ccccc32)cc1
A: -3.92

Q: Report measured ΔTm; entry is CC[C@H](C)[C@H](NC(C)=O)C(=O)N[C@@H](CCC(=O)O)C(=O)N[C@H](C(=O)N[C@H](C=O)CC(=O)O)[C@@H](C)O (Ac-IETD-aldehyde)
A: -1.72

Q: Report measured ΔTm; entry is CC1(C)c2cccc(C(=O)NO)c2CN1c1cnc(C(F)(F)F)cn1
A: 0

Q: Report measured ΔTm; entry is CC(C)(C)OC(=O)Nc1ccc(-c2cc(C(=O)NCCCCCCC(=O)NO)no2)cc1
A: 0

Q: Report measured ΔTm; entry is CN1CCN2c3c(cccc31)[C@@H]1CN(CCCC(=O)c3ccc(F)cc3)CC[C@@H]12
A: -0.53

Q: Report measured ΔTm; entry is CC1(C)CC[C@]2(C(=O)O)CC[C@]3(C)C(=CC[C@@H]4[C@@]5(C)C=C(O)C(=O)C(C)(C)[C@@H]5CC[C@]43C)[C@@H]2C1
A: -1.79

Q: Report measured ΔTm; entry is Cc1nnn(C)c1-c1cnc2c3cc4cnn(C)c4cc3n([C@H](c3ccccc3)C3CCOCC3)c2c1
A: -1.29

Q: Report measured ΔTm; entry is COc1ccc(OC)c(-c2nnc3n2N=C(c2ccc(OC)c(OC)c2)CS3)c1
A: -1.12

Q: Report measured ΔTm; entry is CCCOc1cc(OCCCCN(C)C)cc(Oc2cc3c(cc2NS(=O)(=O)c2ccc(OC)c(OC)c2)n(C)c(=O)n3C)c1
A: 0.59

Q: Report measured ΔTm; entry is NCCOCCOCCNC(=O)Cc1ccc(Nc2nc(NCc3ccc(F)cc3)nc(NCC3CCCCC3)n2)cc1
A: 0

----------
Exercise: for every item that follows, state its recorded ΔTm.
# Measured on: Tyrosine-protein kinase ABL1 (Homo sapiens)
# Applied conditions: Compound concentration 20.0 uM
# Description: Thermal Shift Assay. Domain: start/stop: S229-K512

Q: Provide Tyrosine-protein kinase ABL1 (Homo sapiens) ΔTm reading for NC(=O)C(CCCN=C(N)CCl)NC(=O)c1ccccc1 (stereo not given) .
A: 0.36 °C

Q: Provide Tyrosine-protein kinase ABL1 (Homo sapiens) ΔTm reading for COC[C@H](NC(=O)c1ccn(S(C)(=O)=O)c1)C(=O)Nc1nc(-c2cccc(-c3ccn(C)n3)c2)cs1 .
A: 0.67 °C

Q: Provide Tyrosine-protein kinase ABL1 (Homo sapiens) ΔTm reading for CC1(C)Cn2nc(-c3ccc(F)cn3)c(-c3ccnc4[nH]ncc34)c2CO1 .
A: 2.43 °C

Q: Provide Tyrosine-protein kinase ABL1 (Homo sapiens) ΔTm reading for CN1CCN(c2nc(-c3ccc(C(=O)NC4(C(=O)NCC#N)CCCCC4)cc3)cs2)CC1 .
A: 0.26 °C

Q: Provide Tyrosine-protein kinase ABL1 (Homo sapiens) ΔTm reading for CC(C)CCn1c(CN2CCN(C(=O)C3CC3)CC2)nc2c1c(=O)n(C)c(=O)n2C .
A: 0.68 °C
